target: Sphingosine 1-phosphate receptor 1 (Homo sapiens); experiment: Agonist activity at S1P1 receptor by Tango assay; format: functional
Sequence (P21453 whole entry): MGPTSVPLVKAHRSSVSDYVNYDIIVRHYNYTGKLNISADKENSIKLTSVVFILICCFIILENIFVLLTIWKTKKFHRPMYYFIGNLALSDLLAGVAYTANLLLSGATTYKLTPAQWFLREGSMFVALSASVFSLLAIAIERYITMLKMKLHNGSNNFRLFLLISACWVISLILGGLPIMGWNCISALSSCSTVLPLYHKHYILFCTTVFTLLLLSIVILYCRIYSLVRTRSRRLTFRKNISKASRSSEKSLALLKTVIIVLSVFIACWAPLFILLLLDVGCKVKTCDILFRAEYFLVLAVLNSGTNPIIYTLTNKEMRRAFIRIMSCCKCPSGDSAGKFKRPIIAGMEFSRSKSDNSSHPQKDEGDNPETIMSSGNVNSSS
So I've got a bunch of compounds here, and I need their EC50 values.
Numbers only, in nM.

Known EC50 results, listed for orientation:
{"molecule-smiles": "CCCn1cc(CCC(=O)O)c2cccc(-c3noc(-c4ccc(OC(C)C)c(Cl)c4)n3)c21", "target": "Sphingosine 1-phosphate receptor 1 (Homo sapiens)", "endpoint-result": 200}
{"molecule-smiles": "CC(C)Oc1ccc(-c2nc(-c3cccc4c(C(=O)O)c[nH]c34)no2)cc1Cl", "target": "Sphingosine 1-phosphate receptor 1 (Homo sapiens)", "endpoint-result": 5.01}
{"molecule-smiles": "COc1ccc(-c2nc(-c3cccc4c(CCC(=O)O)c[nH]c34)no2)cc1OC", "target": "Sphingosine 1-phosphate receptor 1 (Homo sapiens)", "endpoint-result": 1260}
{"molecule-smiles": "COc1ccc(-c2noc(-c3ccc(OC(C)C)c(Cl)c3)n2)c2c1c(CCC(=O)O)cn2C", "target": "Sphingosine 1-phosphate receptor 1 (Homo sapiens)", "endpoint-result": 6.31}
{"molecule-smiles": "CC(C)Oc1ccc(-c2nc(-c3ccc4c(CCC(=O)O)c[nH]c4c3)no2)cc1Cl", "target": "Sphingosine 1-phosphate receptor 1 (Homo sapiens)", "endpoint-result": 0.251}
{"molecule-smiles": "CCn1cc(CCC(=O)O)c2cccc(-c3noc(-c4ccc(OC(C)C)c(Cl)c4)n3)c21", "target": "Sphingosine 1-phosphate receptor 1 (Homo sapiens)", "endpoint-result": 0.316}
{"molecule-smiles": "CCOc1ccc(-c2nc(-c3cccc4c(CCC(=O)O)c[nH]c34)no2)cc1OCC", "target": "Sphingosine 1-phosphate receptor 1 (Homo sapiens)", "endpoint-result": 3.16}
{"molecule-smiles": "CC(C)Oc1ncc(-c2nc(-c3cccc4c(CCC(=O)O)c[nH]c34)no2)cc1Cl", "target": "Sphingosine 1-phosphate receptor 1 (Homo sapiens)", "endpoint-result": 0.398}
{"molecule-smiles": "CC1(C)Oc2ccc(-c3nc(-c4cccc5c(CCC(=O)O)c[nH]c45)no3)cc2O1", "target": "Sphingosine 1-phosphate receptor 1 (Homo sapiens)", "endpoint-result": 398}
{"molecule-smiles": "CC(C)Oc1ccc(-c2nc(-c3cccc4c(CCc5nnn[nH]5)c[nH]c34)no2)cc1Cl", "target": "Sphingosine 1-phosphate receptor 1 (Homo sapiens)", "endpoint-result": 0.0794}

// batch mode: one EC50 value per listed entry
1. O=C(O)CCc1c[nH]c2c(-c3noc(-c4ccc(Cl)cc4)n3)cccc12
2. CC(C)Oc1ccc(-c2nc(-c3cccc4c(CC(=O)O)c[nH]c34)no2)cc1Cl
3. CC(C)Oc1ccc(-c2nc(-c3cccc4c(CCCCC(=O)O)c[nH]c34)no2)cc1Cl

### Response
3160
39.8
0.0501

Answer for every listed entry: what is its EC50? The entries follow.
1. COc1cc(-c2nc(-c3cccc4c(CCC(=O)O)c[nH]c34)no2)cnc1OC(C)C
2. CC(C)Oc1ncc(-c2nc(-c3cccc4c(CCC(=O)O)c[nH]c34)no2)cc1C(F)(F)F
3. CC(C)Oc1ccc(-c2nc(-c3cccc4c(CCC(N)=O)c[nH]c34)no2)cc1Cl
4. CC(C)Oc1ccc(-c2nc(-c3cccc4c(CCC(=O)O)cn(C)c34)no2)cc1Cl
5. CC(C)Oc1ccc(-c2nc(-c3c(F)ccc4c(CCC(=O)O)cn(C)c34)no2)cc1Cl
6. CC(C)Oc1ccc(-c2nc(-c3cccc4c(CCC(=O)O)cn(C(C)C)c34)no2)cc1Cl
7. CC(C)Oc1ccc(-c2nc(-c3ccc4ccn(CCC(=O)O)c4c3)no2)cc1Cl

### Response
[100, 0.251, 0.0316, 0.00631, 25.1, 20, 398]

### Prompt Give EC50 for CC(C)Oc1ccc(-c2nc(-c3ccc4c(ccn4CCC(=O)O)c3)no2)cc1Cl
### Response 2.51
